- system-name: Cyclin-dependent kinase 2/cyclin A (Homo sapiens)
- test-summary: Inhibition of cyclin dependent kinase 2-cyclin A
Lab note: compare IC50 with 0.2 µM, writing YES if less and NO if equal or more.

compound	system-name	qualitative-label
N[C@H](C(=O)Nc1cc(C2CC2)[nH]n1)c1ccccc1	Cyclin-dependent kinase 2/cyclin A (Homo sapiens)	NO
CC(C(=O)Nc1cc(C2CC2)[nH]n1)c1ccc(-n2cn[nH]c2=O)cc1 (stereo not drawn)	Cyclin-dependent kinase 2/cyclin A (Homo sapiens)	YES
CC(C(=O)Nc1cc(C2CC2)[nH]n1)c1ccc(N2CCNC2=O)cc1 (stereo not drawn)	Cyclin-dependent kinase 2/cyclin A (Homo sapiens)	YES
O=C(Nc1cc(C2CC2)n[nH]1)C(=O)c1ccccc1	Cyclin-dependent kinase 2/cyclin A (Homo sapiens)	NO
C[C@H](C(=O)Nc1cc(C2CC2)[nH]n1)c1ccc(N2Cc3ccccc3C2=O)cc1	Cyclin-dependent kinase 2/cyclin A (Homo sapiens)	YES

[in] For this compound, is IC50 lower than 0.2 µM? C[C@@H](C(=O)Nc1cc(C2CC2)[nH]n1)c1ccc(N2CCOC2=O)cc1
[out] NO

[in] Does C[C@@H](C(=O)Nc1cc(C2CC2)[nH]n1)c1ccccc1 have IC50 strictly under 0.2 µM?
[out] NO

[in] A record lists CC(C(=O)Nc1cc(C2CC2)[nH]n1)c1ccc(N2CC(=O)NC2=O)cc1 (stereo not drawn) . Is its IC50 below 0.2 µM?
[out] YES

[in] Report whether reported IC50 is lower than 0.2 µM (strictly) for CC(C(=O)Nc1cc(C2CC2)[nH]n1)c1ccc(N2CCN(C)C2=O)cc1 (stereo not drawn)
[out] YES

[in] Just wondering, is IC50 of CC(C(=O)Nc1cc(C2CC2)[nH]n1)c1ccc(N2CCCC2=O)cc1 (stereo not drawn) below 0.2 µM?
[out] YES

[in] Is IC50 of CC(C(=O)Nc1cc(C2CC2)[nH]n1)c1ccc(N2CCOC2=O)cc1 (stereo not drawn) strictly below 0.2 µM?
[out] YES

[in] IC50 strictly < 0.2 µM for this compound? COC(C(=O)Nc1cc(C2CC2)[nH]n1)c1ccccc1 (stereo not drawn)
[out] NO

* * *

- test-settings: rat, plasma
- Description: Plasma protein binding activity determined in rat hepatocytes
hey, just use Condition met if measured Binding is less than 70%, otherwise Condition not met

molecule	qualitative-label
C[C@H](C(=O)Nc1cc(C2CC2)[nH]n1)c1ccc(N2CCCC2)cc1	Condition not met
C[C@@H](C(=O)Nc1cc(C2CC2)[nH]n1)c1ccc(N2CCNC2=O)cc1	Condition not met
CC(C(=O)Nc1cc(C2CC2)[nH]n1)c1ccc(N2CCCC2)cc1 (stereo not given)	Condition not met

[in] Determine whether this molecule shows Binding lower than 70% (ties excluded): CC(C(=O)Nc1cc(C2CC2)[nH]n1)c1ccc(N2CCCS2(=O)=O)cc1 (stereo not given)
[out] Condition not met

[in] Answer whether the molecule CC(C(=O)Nc1cc(C2CC2)[nH]n1)c1ccc(N2CCC(C(N)=O)C2=O)cc1 (stereo not given) has Binding strictly less than 70%
[out] Condition met

[in] Identify whether the molecule C[C@H](C(=O)Nc1cc(C2CC2)[nH]n1)c1ccc(N2CCNC2=O)cc1 records Binding below 70%.
[out] Condition not met

[in] For this molecule, is Binding lower than 70%? CC(C(=O)Nc1cc(C2CC2)[nH]n1)c1ccc(N2C(=O)CCC2C)cc1 (stereo not given)
[out] Condition met

[in] In the record for CC(C(=O)Nc1cc(C2CC2)[nH]n1)c1ccc(N2CCOC2=O)cc1 (stereo not given) , is Binding less than 70%?
[out] Condition not met

[in] Input CC(C(=O)Nc1cc(C2CC2)[nH]n1)c1ccc(N2C(=O)CCC2c2ccccc2)cc1 (stereo not given) ; condition: Binding strictly below 70%. Does it hold?
[out] Condition not met

[in] Hello, I'm reviewing records and need to know if Binding of CC(C(=O)Nc1cc(C2CC2)[nH]n1)c1ccc(-n2cc[nH]c2=O)cc1 (stereo not given) is below 70%. Could you check?
[out] Condition not met

[in] Please state whether Binding is below 70% for CC(C(=O)Nc1cc(C2CC2)[nH]n1)c1ccc(-n2cn[nH]c2=O)cc1 (stereo not given)
[out] Condition met

[in] Please determine if CC(C(=O)Nc1cc(C2CC2)[nH]n1)c1ccc(N2CC(=O)NC2=O)cc1 (stereo not given) is below 70% in terms of Binding.
[out] Condition met

[in] Lab note: confirm whether the reported Binding for this molecule is below 70%, equality not counting. molecule: O=C(Cc1ccc2ccccc2c1)Nc1cc(C2CC2)n[nH]1
[out] Condition not met

[in] Field: below-cutoff. Rule: recorded Binding strictly less than 70%. Subject: CC(C(=O)Nc1cc(C2CC2)[nH]n1)c1ccc(N2CCNC2=O)cc1 (stereo not given)
[out] Condition not met

Measured values drawn from ChEMBL document CHEMBL1143606 for this set.
